# PROTOCOL: inhibitors of mitochondrial cytochrome c release, biochemical, purified mitochondria (AID 1603);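 further: mouse liver mitochondria challenged with calcium chloride; signal normalized to the plate average as 100%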
# TEST CONTEXT: stronger effect = lower value
Listed here are molecules together with their documented cytochrome c release ratio.

| MOLECULE | cytochrome c release ratio |
| --- | --- |
| NCC[C@@H](O)C(=O)N[C@@H]1C[C@H](N)[C@@H](O[C@H]2O[C@H](CN)[C@@H](O)[C@H](O)[C@H]2O)[C@H](O)[C@H]1O[C@H]1O[C@H](CO)[C@@H](O)[C@H](N)C1O (some centres not stated) | 0.95 |
| C[C@]12C=CC(=O)C=C1CCC1C2[C@@H](O)C[C@@]2(C)C1CC[C@]2(O)C(=O)CO (some centres not stated) | 1.29 |
| C[C@]12CCC3c4ccc(O)cc4CCC3C1CC[C@@H]2OC(=O)CCC1CCCC1 (some centres not stated) | 0.97 |
| CO[C@@]1(NC(=O)CSCC#N)C(=O)N2C(C(=O)O)=C(CSc3nnnn3C)CSC21 (some centres not stated) | 0.56 |
| CC(Cc1ccc(O)c(O)c1)(NN)C(=O)O (configuration not stated) | 0.84 |
| C[C@]12C=CC(=O)C=C1CCC1C3C[C@@H](O)[C@](O)(C(=O)CO)[C@@]3(C)C[C@H](O)[C@@]12F (some centres not stated) | 1.15 |
| CN1CCN(CCC=C2c3ccccc3Sc3ccc(S(=O)(=O)N(C)C)cc32)CC1 | 2.01 |

* * *

# PROTOCOL: Cy5 fluorescence quenching or enhancement artefacts, artefact control for HCV NS3 helicase inhibitor project, biochemical, LOPAC1280 (AID 687037)
# TEST CONTEXT: Cy5-DNA-NS3h complex fluorescence interference counterscreen
Listed here are compounds together with their documented fluorescence ratio (interference).

| COMPOUND | fluorescence ratio (interference) |
| --- | --- |
| O=C1NC(=O)C(c2ccccc2[N+](=O)[O-])=C1Nc1ccc(O)c(Cl)c1 | 1 |
| CC(=O)O[C@H]1C(=O)[C@@]2(C)C([C@H](OC(=O)c3ccccc3)[C@]3(O)C[C@H](OC(=O)[C@H](O)[C@@H](NC(=O)c4ccccc4)c4ccccc4)C(C)=C1C3(C)C)[C@]1(OC(C)=O)CO[C@@H]1C[C@@H]2O (some centres undefined) | 0.9 |
| c1ccc(-c2ccccn2)nc1 | 1 |
| CCCCCCCCc1ccc(-c2ccc(C(=O)O)cc2)cc1 | 1 |
| Oc1cc2c(cc1O)C(c1ccccc1)CNCC2 (centres undefined) | 1 |
| Oc1cc2c(c(Cl)c1O)CCNCC2c1ccccc1 (centres undefined) | 0.6 |
| CC(C)(C)NCC(O)COc1cccc2[nH]c(=O)[nH]c12 (centres undefined) | 1 |
| NCCCNCCCCNCCCN | 1 |
| COc1cccc(-c2cc(=O)c3ccccc3o2)c1N | 1 |
| NCC(O)(CS(=O)(=O)O)c1ccc(Cl)cc1 (centres undefined) | 1 |
| O=C1NC(c2cccc([N+](=O)[O-])c2)=CCN1c1ccccc1O | 1 |
| Oc1ccc2ccccc2c1SSc1c(O)ccc2ccccc12 | 1 |
| Oc1cc(O)cc(/C=C/c2ccc(O)c(O)c2)c1 | 0.9 |
| CCN(CC)CCOC(=O)c1cc(Cl)c(N)cc1OC | 1 |
| Cn1cnc2c(NCc3ccccc3)nc(NCCO)nc21 | 0.9 |
| Nc1nc2c(cnn2CCc2ccccc2)c2nc(-c3ccco3)nn12 | 1 |
| O=[N+]([O-])c1cccc2c(Br)[nH]nc12 | 0.9 |
| NC(N)=N/N=C\c1c(Cl)cccc1Cl | 1 |
| CCCCCCN(CCCCCC)C(=O)Cc1c(-c2ccc(F)cc2)[nH]c2ccccc12 | 1 |
| O=Nc1c(-c2c(O)[nH]c3ccccc23)[nH]c2ccccc12 | 1 |
| O=Nc1c(-c2c(O)[nH]c3cc(Br)ccc23)[nH]c2ccccc12 | 0.9 |
| O=C(O)c1cc(=O)c2c(Cl)cc(Cl)cc2[nH]1 | 1 |
| O=C(Nc1ccccc1)c1cc([N+](=O)[O-])ccc1Cl | 1 |
| Cc1nc2c(OCc3ccccc3)cccn2c1CC#N | 1 |
| Cn1cc(C(=O)OCC2CCN(CCNS(C)(=O)=O)CC2)c2ccccc21 | 1 |
| Cc1ccc(S(=O)(=O)/C=C/C#N)cc1 | 1 |
| COC1(C2=NCCN2)COc2ccccc2O1 (centres undefined) | 0.9 |
| NC(=O)c1ccc2[nH]ccc2c1 | 1 |
| CC(C)NCC(O)c1ccc(NS(C)(=O)=O)cc1 (centres undefined) | 1 |

* * *

# MEASURED TARGET: NAD(+) hydrolase SARM1 (Homo sapiens) (UniProt Q6SZW1)
# Sequence (Q6SZW1 whole entry, looked up): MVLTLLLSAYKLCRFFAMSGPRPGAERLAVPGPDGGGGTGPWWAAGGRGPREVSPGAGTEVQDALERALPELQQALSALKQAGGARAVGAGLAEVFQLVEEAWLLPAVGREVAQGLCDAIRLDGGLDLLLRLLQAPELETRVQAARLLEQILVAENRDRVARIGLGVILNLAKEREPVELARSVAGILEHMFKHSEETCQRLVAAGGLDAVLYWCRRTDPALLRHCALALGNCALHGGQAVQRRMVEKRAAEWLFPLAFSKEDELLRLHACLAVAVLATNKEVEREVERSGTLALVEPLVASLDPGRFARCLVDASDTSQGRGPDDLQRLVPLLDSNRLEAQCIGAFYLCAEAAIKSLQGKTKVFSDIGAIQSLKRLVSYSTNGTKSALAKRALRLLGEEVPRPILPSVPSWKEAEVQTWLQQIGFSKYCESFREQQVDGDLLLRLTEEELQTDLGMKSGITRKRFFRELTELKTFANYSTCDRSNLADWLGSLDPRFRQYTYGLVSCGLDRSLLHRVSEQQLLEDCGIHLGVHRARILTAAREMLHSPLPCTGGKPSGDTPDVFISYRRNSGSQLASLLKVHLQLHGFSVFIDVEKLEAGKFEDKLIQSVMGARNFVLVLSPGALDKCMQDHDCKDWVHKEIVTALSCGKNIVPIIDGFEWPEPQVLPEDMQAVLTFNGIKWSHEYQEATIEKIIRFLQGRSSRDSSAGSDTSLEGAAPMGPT
# PROTOCOL: SARM1 TIR NADase inhibitors, cell lysate, NAD-Glo luminescence (AID 1508614);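 further: higher remaining NAD means stronger inhibition of SARM1 NADase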
# TEST CONTEXT: SAM-TIR HEK293T lysate NADase, at 1 µM
The source made the active and inactive calls.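 How the source made its calls: active means compound whose remaining NAD level is above about 45 nM (limit read from the data); inactive means the rest.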
Classes used: t (active), f (inactive)

| MOLECULE | MEASURED TARGET | GROUP LABEL |
| --- | --- | --- |
| CN1CCc2cccc3c2[C@H]1Cc1ccc(O)c(O)c1-3 | NAD(+) hydrolase SARM1 (Homo sapiens) (UniProt Q6SZW1) | t |
| CN(Cc1cnc2nc(N)nc(N)c2n1)c1ccc(C(=O)NC(CCC(=O)O)C(=O)O)cc1 (centres undefined) | NAD(+) hydrolase SARM1 (Homo sapiens) (UniProt Q6SZW1) | f |
| C=COCC(F)(F)F | NAD(+) hydrolase SARM1 (Homo sapiens) (UniProt Q6SZW1) | f |
| FC(F)(Cl)C(F)(F)Cl | NAD(+) hydrolase SARM1 (Homo sapiens) (UniProt Q6SZW1) | f |

* * *

# PROTOCOL: JHH-DIPG-1 glioma cell viability, MIPE5.0 library, CellTiter-Glo luminescence, qHTS (AID 1347067);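 further: cells exposed to compound for 48 hours before readout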
# TEST CONTEXT: JHH-DIPG-1 glioma viability, CellTiter-Glo ATP luminescence
Inconclusive results are not listed. Activity calls are given as the source filed them. The limit is not given here; nearly all actives have AC50 up to about 26 µM.
RECORDED METRIC: AC50

| COMPOUND | EXPERIMENTAL VALUE |
| --- | --- |
| Cc1cc(NC(=O)Nc2ccc(N(C)C)cc2)c2cc(F)cc(F)c2n1 | inactive |
| CN1CC(=O)N2[C@H](c3ccc4c(c3)OCO4)c3[nH]c4ccccc4c3C[C@@H]2C1=O | inactive |
| Cc1cc2c(s1)Nc1ccccc1N=C2N1CCN(C)CC1 | 1.18 µM (active) |
| O=C(c1ccc(Nc2nccc(-c3cc4ccccc4s3)n2)cc1)N1CCC(N2CCCC2)CC1 | 9.34 µM (active) |
| CC(C)c1ccc2c(c1)c(SC(C)(C)C)c(CC(C)(C)C(=O)O)n2Cc1ccc(Cl)cc1 | 26.3 µM (active) |
| O=c1[nH]c(-c2ccc(C(F)(F)F)cc2)nc2c1CSCC2 | inactive |
| CCC(=O)NS(=O)(=O)c1ccc(-c2c(-c3ccccc3)noc2C)cc1 | inactive |
| COc1cc(C[C@@H](CO)[C@H](CO)Cc2ccc(O)c(OC)c2)ccc1O | inactive |
| N#CC(c1ccc(Cl)cc1)c1c(Cl)cc(-n2ncc(=O)[nH]c2=O)cc1Cl (centres undefined) | inactive |
| O=c1[nH]c(=O)n(C2CCCO2)cc1F (centres undefined) | inactive |
| N#Cc1c(O)c2c(-c3ccc(-c4ccccc4O)cc3)csc2[nH]c1=O | inactive |
| CC(C)C[C@@H](C(=O)N[C@H](C(=O)OC1CCCC1)c1ccccc1)[C@H](O)C(=O)NO | inactive |
| COc1cccc2c1C(=O)c1c(O)c3c(c(O)c1C2=O)C[C@@](O)(C(=O)CO)C[C@@H]3O[C@H]1C[C@H](N)[C@@H](O)[C@H](C)O1 | 2.35 µM (active) |
| COc1nccc(-c2c(-c3ccc(F)cc3)ncn2C2CCC(O)CC2)n1 (centres undefined) | inactive |

* * *

# PROTOCOL: survival rescue of mitochondrial mutant cells in low glucose, primary screen, MELAS cybrids, Rieske KO mouse fibroblasts, CellTiter-Glo (AID 1508586);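 further: z relative to plate mean and SD of compound and empty wells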
# TEST CONTEXT: Rieske KO mouse fibroblast survival, CellTiter-Glo 72 h

| MOLECULE | z-score |
| --- | --- |
| O=C1NC(=O)C(c2ccccc2[N+](=O)[O-])=C1Nc1ccc(O)c(Cl)c1 | 0.723 |
| CC(=O)O[C@@]12CO[C@@H]1C[C@H](O)[C@@]1(C)C(=O)[C@H](O)C3=C(C)[C@@H](OC(=O)[C@H](O)[C@@H](NC(=O)OC(C)(C)C)c4ccccc4)C[C@](O)([C@@H](OC(=O)c4ccccc4)[C@H]21)C3(C)C | 0.54 |
| CC1(O)CCOC(=O)C1 (stereo unspecified) | -0.633 |
| CCCCC[C@H](O)/C=C/[C@H]1[C@H](O)CC(=O)[C@@H]1C/C=C\CCCC(=O)O | -0.895 |
| COc1cccc(-c2cc(=O)c3ccccc3o2)c1N | 1.33 |
| CN(C)CCCSC(=N)N | -0.104 |
| Cc1ccc(C(=O)Cn2c3c(sc2=N)CCCC3)cc1 | -0.573 |
| CCC[C@@H]1C[C@@H](C(=O)N[C@@H](C2O[C@H](SC)[C@H](O)[C@@H](O)[C@H]2O)[C@H](C)Cl)N(C)C1 (stereo partly specified) | -0.624 |
| CNCC[C@@H](Oc1ccccc1C)c1ccccc1 | -0.171 |
| COc1ccccc1N1CCN(CCN2C(=O)CC3(CCCC3)CC2=O)CC1 | -0.237 |
| CN1C2CCC1CC(OC(c1ccccc1)c1ccccc1)C2 (stereo unspecified) | -0.171 |
